- Tested On: T1, serum purified human Complement Factor D (human, UniProt P00746 26-253)
- T1 construct: Serum purified protein flowed over the captured antibodies; also called CFD; human CFD
- T1 sequence (P00746 26-253): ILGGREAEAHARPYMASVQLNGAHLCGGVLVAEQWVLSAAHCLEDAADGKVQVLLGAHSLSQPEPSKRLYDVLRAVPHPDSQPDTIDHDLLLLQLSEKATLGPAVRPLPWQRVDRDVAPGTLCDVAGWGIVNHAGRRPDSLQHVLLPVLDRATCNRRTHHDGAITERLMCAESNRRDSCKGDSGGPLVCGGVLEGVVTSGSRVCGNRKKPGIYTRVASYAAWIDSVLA
- Protocol Description: SPR Biacore, antibody on protein A chip, single cycle kinetics, 37 C;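 note: antibodies captured on the protein A surface to roughly 70 RU in HBS-EP+ buffer, with rate and affinity constants fitted using BIAevaluation software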
pKd: −log10 of the molar value.
Property Name: pKd

{"columns": ["Binder", "Observed Measurement"],
 "data": [
  ["54V59D / 34D50V101V (antibody, V domains shown, KCD119 TAF variant; full antibody captured on protein A) VH: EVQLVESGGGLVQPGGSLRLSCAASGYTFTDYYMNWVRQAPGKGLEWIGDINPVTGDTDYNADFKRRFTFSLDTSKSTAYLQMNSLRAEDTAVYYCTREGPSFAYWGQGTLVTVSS VL: DIQLTQSPSSLSASVGDRVTITCRSSQTIVHSNDDTYLEWYQQKPGKAPVLLIYKVSNRFSGVPSRFSGSGSGTDFTLTISSLQPEDFATYYCFQGSHVPVTFGQGTKVEIK", 10.23],
  ["54V59D / 34D60W101V (antibody, V domains shown, KCD119 TAF variant; full antibody captured on protein A) VH: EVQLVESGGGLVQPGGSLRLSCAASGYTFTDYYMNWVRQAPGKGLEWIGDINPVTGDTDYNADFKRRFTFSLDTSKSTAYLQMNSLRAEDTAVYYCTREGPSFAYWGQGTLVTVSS VL: DIQLTQSPSSLSASVGDRVTITCRSSQTIVHSNDDTYLEWYQQKPGKAPNLLIYKVSNRWSGVPSRFSGSGSGTDFTLTISSLQPEDFATYYCFQGSHVPVTFGQGTKVEIK", 10.27],
  ["34I54I59D84S / 54R101V (antibody, human IgG1, V domains shown, Human IgG1 kappa; also called OG1965) VH: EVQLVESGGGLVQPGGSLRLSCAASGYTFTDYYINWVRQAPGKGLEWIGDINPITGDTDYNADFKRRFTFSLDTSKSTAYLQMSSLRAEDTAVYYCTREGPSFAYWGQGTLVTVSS VL: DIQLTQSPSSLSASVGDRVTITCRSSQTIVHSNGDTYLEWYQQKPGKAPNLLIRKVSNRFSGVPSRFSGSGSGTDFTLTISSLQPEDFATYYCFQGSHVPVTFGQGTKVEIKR", 11.30]
]}
